Cited source for all entries: patent US20090105316A1

assay-info: Log P determination by HPLC on a reversed-phase column (EEC Directive 79/831, Annex V.A8)
Format: physicochemical
test-parameters: reversed-phase HPLC column (C 18); pH 2.3
chromatographic logP values for the compounds below.
assay-metric: chromatographic logP

1) Cc1ccc(-c2cc(C(F)(F)F)ccc2NC(=O)c2sc(C)nc2C(F)(F)F)cc1 ... 4.48
2) Cc1ccc(-c2cc(C(F)(F)F)ccc2N)cc1 ... 3.98
